Recorded values, source patent US8828908B2.

Form field: pest or weed control at 250 g/ha (one value per entry).
# System: Alopecurus myosuroides (ALOMY)
# Assay info: Example A post-emergence herbicidal glasshouse test
# Format: in vivo
# Measurement conditions: 312 h, evaluated after 13 days, 100=total damage to plant, 0=no damage
Experimental readout: pest or weed control at 250 g/ha (%)

# Molecule, Experimental readout, Observed value
data = [
    ("CCc1ccc(-c2ccc(C)c(C3=C(O)[C@H]4CC[C@H](C4)C3=O)c2)cc1 (single isomer, unassigned) [Compound T14]", "pest or weed control at 250 g/ha", 0),
    ("Cc1cc(-c2ccc(Cl)cc2)ccc1C1=C(O)[C@H]2CC[C@H](C2)C1=O [Compound T61]", "pest or weed control at 250 g/ha", 100),
    ("Cc1ccc(-c2cccc(Cl)c2F)cc1C1=C(O)[C@H]2CC[C@H](C2)C1=O (single isomer, unassigned) [Compound T46]", "pest or weed control at 250 g/ha", 0),
    ("CCc1ccc(-c2ccc(Cl)c(Cl)c2)cc1C1=C(O)[C@H]2CC[C@H](C2)C1=O (single isomer, unassigned) [Compound T35]", "pest or weed control at 250 g/ha", 40),
    ("CCc1ccc(-c2ccc(F)c(Cl)c2)cc1C1=C(O)[C@H]2CC[C@H](C2)C1=O (single isomer, unassigned) [Compound T39]", "pest or weed control at 250 g/ha", 60),
    ("CCc1ccc(-c2ccc(Cl)c(C(F)(F)F)c2)cc1C1=C(O)[C@H]2CC[C@H](C2)C1=O (single isomer, unassigned) [Compound T37]", "pest or weed control at 250 g/ha", 90),
    ("Cc1ccc(-c2ccc(F)c(F)c2)cc1C1=C(O)[C@H]2CC[C@H](C2)C1=O (single isomer, unassigned) [Compound T9]", "pest or weed control at 250 g/ha", 10),
    ("CCc1ccc(-c2cc(Cl)ccc2OC)cc1C1=C(O)[C@H]2CC[C@H](C2)C1=O (single isomer, unassigned) [Compound T40]", "pest or weed control at 250 g/ha", 0),
    ("Cc1ccc(-c2cccc(Cl)c2C)cc1C1=C(O)[C@H]2CC[C@H](C2)C1=O (single isomer, unassigned) [Compound T48]", "pest or weed control at 250 g/ha", 0),
    ("CCc1ccc(-c2ccc(Cl)cc2OC)cc1C1=C(O)[C@H]2CC[C@H](C2)C1=O (single isomer, unassigned) [Compound T43]", "pest or weed control at 250 g/ha", 50),
    ("CCc1ccc(-c2ccc(Cl)cc2)cc1C1=C(O)[C@H]2C=C[C@H](CC2)C1=O (single isomer, unassigned) [Compound T55]", "pest or weed control at 250 g/ha", 50),
    ("CCc1cc(-c2ccc(Cl)cc2)cc(CC)c1C1=C(O)[C@H]2CC[C@H](C2)C1=O [Compound T62]", "pest or weed control at 250 g/ha", 100),
    ("Cc1ccc(-c2ccccc2C)cc1C1=C(O)[C@H]2CC[C@H](C2)C1=O (single isomer, unassigned) [Compound T18]", "pest or weed control at 250 g/ha", 0),
]
